# Target System: recombinant human Bcl-2 D103Y protein (Homo sapiens (Human), UniProt P10415, D103Y)
# Sequence (P10415 whole entry D103Y): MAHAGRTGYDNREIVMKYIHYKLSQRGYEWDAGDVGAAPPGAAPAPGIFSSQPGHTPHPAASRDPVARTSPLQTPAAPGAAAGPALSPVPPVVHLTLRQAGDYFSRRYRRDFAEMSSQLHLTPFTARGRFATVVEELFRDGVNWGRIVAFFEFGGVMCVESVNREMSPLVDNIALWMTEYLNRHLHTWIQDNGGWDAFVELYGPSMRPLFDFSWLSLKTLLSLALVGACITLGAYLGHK
# Protocol Description: Bcl-2-D103Y Biochemical Assay (TR-FRET)
# Format: binding
# Assay Conditions: ratio of IC50
So I've got a bunch of molecules here, and I need their Ratio of Bcl-2 D103Y/Bcl-2 WT values.
Give bare numbers.

[
  {
    "Molecule": "COc1cc(CN2CCN(C3CC4(C3)CN(c3ccc(C(=O)NS(=O)(=O)c5ccc(NC[C@H]6CC[C@](C)(O)CC6)c([N+](=O)[O-])c5)c(Oc5cnc6[nH]ccc6c5)c3)C4)[C@H](c3ccccc3C(C)C)C2)cc2ccoc12",
    "Ratio of Bcl-2 D103Y/Bcl-2 WT": 1.1
  },
  {
    "Molecule": "CC(C)c1ccccc1C1CN(Cc2cccc(F)c2)CCN1C1CC2(CCN(c3ccc(C(=O)NS(=O)(=O)c4ccc(NC[C@H]5CC[C@](C)(O)CC5)c([N+](=O)[O-])c4)c(Oc4cnc5[nH]ccc5c4)c3)CC2)C1 (some centres unmarked)",
    "Ratio of Bcl-2 D103Y/Bcl-2 WT": 2.7
  },
  {
    "Molecule": "COc1ccc(CN2CCN(C3CC4(CCN(c5ccc(C(=O)NS(=O)(=O)c6ccc(NC[C@H]7CC[C@](C)(O)CC7)c([N+](=O)[O-])c6)c(Oc6cnc7[nH]cc(F)c7c6)c5)CC4)C3)[C@H](c3ccccc3C(C)C)C2)cn1",
    "Ratio of Bcl-2 D103Y/Bcl-2 WT": 1.4
  },
  {
    "Molecule": "COc1ccc(CN2CCN(C3CC4(CCN(c5ccc(C(=O)NS(=O)(=O)c6ccc(NC[C@H]7CC[C@](C)(O)CC7)c([N+](=O)[O-])c6)c(Oc6cnc7[nH]cc(Cl)c7c6)c5)CC4)C3)[C@H](c3ccccc3C(C)C)C2)cc1OC",
    "Ratio of Bcl-2 D103Y/Bcl-2 WT": 1.4
  },
  {
    "Molecule": "CC(C)c1ccccc1[C@@H]1CN(Cc2ccc(OC3CC3)cc2)CCN1C1CC2(C1)CN(c1ccc(C(=O)NS(=O)(=O)c3ccc(NC[C@H]4CC[C@](C)(O)CC4)c([N+](=O)[O-])c3)c(Oc3cnc4[nH]cc(F)c4c3)c1)C2",
    "Ratio of Bcl-2 D103Y/Bcl-2 WT": 1.1
  }
]

I have 3 molecules here; please give me Ratio of Bcl-2 D103Y/Bcl-2 WT for each one.
1. CC(C)c1ccccc1C1CN(Cc2cnn(C3CC3)c2)CCN1C1CC2(CCN(c3ccc(C(=O)NS(=O)(=O)c4ccc(NC[C@H]5CC[C@](C)(O)CC5)c([N+](=O)[O-])c4)c(Oc4cnc5[nH]ccc5c4)c3)CC2)C1 (some centres unmarked)
2. CCc1ccc(CN2CCN(C3CC4(C3)CN(c3ccc(C(=O)NS(=O)(=O)c5ccc(NC[C@H]6CC[C@](C)(O)CC6)c([N+](=O)[O-])c5)c(Oc5cnc6[nH]cc(F)c6c5)c3)C4)[C@H](c3ccccc3C(C)C)C2)cc1OC
3. COc1ccc(CN2CCN(C3CC4(CCN(c5ccc(C(=O)NS(=O)(=O)c6ccc(NC[C@H]7CC[C@](C)(O)CC7)c([N+](=O)[O-])c6)c(Oc6cnc7[nH]cc(F)c7c6)c5)CC4)C3)[C@H](c3ccccc3C(C)C)C2)cc1OC

**A:**
1: 7.1; 2: 1.1; 3: 1
